# Tested on: ATP;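 note: ATP exposure 15 min at 22 °C before imaging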
# procedure.details: switch fluorescence ratio, 500 uM ATP over buffer (Cy3 cluster intensity, sum of 5 cycles each) (fold (ratio)); higher = stronger signal-on switching upon ATP binding; sequences stand for … in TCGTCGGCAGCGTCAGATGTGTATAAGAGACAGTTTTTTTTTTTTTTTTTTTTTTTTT…TC
# reported.conditions: aptamer strand: ATP DNA aptamer (quencher-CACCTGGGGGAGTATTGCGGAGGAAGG + anchor), 100 nM annealed; ATP concentration: 500 uM
quantity.kind: switch fluorescence ratio
Reply with just the number.

ACGGGTACGC    1.01

Req: Would you kindly share the measured switch fluorescence ratio for `CAAGCGTCAC` ?
Resp: 1.12

Req: Give its switch fluorescence ratio value. Item: `ATTTTTTCGA`
Resp: 0.981

Req: Need switch fluorescence ratio of `GGGTTTTCTT` , thanks.
Resp: 0.961

Req: Field request: switch fluorescence ratio | item: `AGAAGGTTTG`
Resp: 0.963

Req: // lookup switch fluorescence ratio for `TATGTGTGAT`
Resp: 0.996

Req: Can you share its switch fluorescence ratio? I mean this sequence: `AGTTCGGTTT`
Resp: 0.958

Req: Please give the measured switch fluorescence ratio for this sequence: `CAATATGATA`
Resp: 1

Req: Request the reported switch fluorescence ratio associated with `GCTTCAGTAG`
Resp: 1.11

Req: # input sequence: `GATGTTTAGT` ; wanted: its switch fluorescence ratio
Resp: 1.04

Req: Query (sequence): `TTTAATTTAT` ; field requested: switch fluorescence ratio
Resp: 1.09

Req: Given `AGGAGGGCTC` , state its recorded switch fluorescence ratio.
Resp: 1.01

Req: Can you share its switch fluorescence ratio? I mean this sequence: `AATAGTGGGT`
Resp: 1

Req: Requested field: switch fluorescence ratio. Item: `TTTCGGGGTA`
Resp: 1

Req: Could you share which switch fluorescence ratio value was measured for `GGTTGGGGCA` ?
Resp: 0.985

====

# Tested on: ATP;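 note: ATP exposure 15 min at 22 °C before imaging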
# procedure.details: switch fluorescence ratio, 500 uM ATP over buffer (Cy3 cluster intensity, sum of 5 cycles each) (fold (ratio)); higher = stronger signal-on switching upon ATP binding; sequences stand for … in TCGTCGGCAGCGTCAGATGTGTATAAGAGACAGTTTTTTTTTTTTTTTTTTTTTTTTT…TC
# reported.conditions: aptamer strand: ATP DNA aptamer (quencher-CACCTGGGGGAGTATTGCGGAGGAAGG + anchor), 100 nM annealed; ATP concentration: 500 uM
quantity.kind: switch fluorescence ratio

TTGATCTAAT    1
GCCGGACAGT    1
TGGTTGCTCT    0.989

Req: Under ATP: switch fluorescence ratio value of `AGTTGGAGCT` ?
Resp: 0.96

Req: Query switch fluorescence ratio on ATP for `CTTTAATCC`
Resp: 1.27

Req: State its switch fluorescence ratio on ATP: `CGAACAGCGA`
Resp: 1.27

Req: // map `ACAGTCATGG` to recorded switch fluorescence ratio (system: ATP);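 note: ATP exposure 15 min at 22 °C before imaging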
Resp: 1.02

Req: For the record `CGGTTAATTT` , what value of switch fluorescence ratio is listed for ATP?
Resp: 1.01

Req: # query: switch fluorescence ratio | item `GTCGTATGAG` | system: ATP;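 note: ATP exposure 15 min at 22 °C before imaging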
Resp: 1.01

Req: Short answer please: switch fluorescence ratio, ATP, entry `CGGGGGAAGT`
Resp: 0.981

Req: Identify the measured switch fluorescence ratio of `TTGTGCCGGG` for ATP.
Resp: 0.939

Req: Param readout= switch fluorescence ratio; system= ATP; entry= `GAGAAGTTGA` ; returns value.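 Note: ATP exposure 15 min at 22 °C before imaging.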
Resp: 1

Req: // fetch ATP switch fluorescence ratio for `AAGGTAATCC`
Resp: 1.01

Req: Checklist item: switch fluorescence ratio tested on ATP, entry `TGGGTCAGTC` , value?;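 note: ATP exposure 15 min at 22 °C before imaging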
Resp: 1.05

Req: Kindly state the measured switch fluorescence ratio obtained for `GTCAACGCCG` with ATP.
Resp: 1.02

Req: Hi! What's the reported switch fluorescence ratio for `TAATGGAAAA` on ATP?
Resp: 1.15

Req: What measured switch fluorescence ratio is associated with `CATGCGTAAA` on ATP?
Resp: 1.24

====

# Lookup of reported switch fluorescence ratio keyed by entry
# Test system: ATP;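 note: ATP exposure 15 min at 22 °C before imaging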
# procedure.details: switch fluorescence ratio, 500 uM ATP over buffer (Cy3 cluster intensity, sum of 5 cycles each) (fold (ratio)); higher = stronger signal-on switching upon ATP binding; sequences stand for … in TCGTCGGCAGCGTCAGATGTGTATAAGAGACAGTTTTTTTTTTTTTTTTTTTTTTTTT…TC
# reported.conditions: aptamer strand: ATP DNA aptamer (quencher-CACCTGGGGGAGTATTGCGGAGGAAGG + anchor), 100 nM annealed; ATP concentration: 500 uM
A bare number is all that is needed in reply.

These recorded examples may help you get a feel for the data.
TGGAGGTGTT    1.03
ACGTGCAGTT    1.02
ATGGGACGGC    0.998
GTTGCGATGA    1.02
AATAGTGGGC    1.01
TGAAAAAACA    1.02
CTTTTCTTGG    0.991
TCCTGAATGA    1

Req: Sample `ATTGTTTCTA` — what was its switch fluorescence ratio?
Resp: 1

Req: What switch fluorescence ratio value was documented for this sequence, `CATGACATTT` ?
Resp: 1.06

Req: Fill in: switch fluorescence ratio of `GGTTTGGTTT` is ___
Resp: 1

Req: For `GGGTCTTCTC` , what is its reported switch fluorescence ratio?
Resp: 1.01

Req: May I ask what switch fluorescence ratio has been recorded for `GAATAAAGTT` ?
Resp: 0.986

Req: Field request: switch fluorescence ratio | item: `CTGGTCGCGT`
Resp: 0.987

====

# Test system: ATP;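 note: ATP exposure 15 min at 22 °C before imaging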
# procedure.details: switch fluorescence ratio, 500 uM ATP over buffer (Cy3 cluster intensity, sum of 5 cycles each) (fold (ratio)); higher = stronger signal-on switching upon ATP binding; sequences stand for … in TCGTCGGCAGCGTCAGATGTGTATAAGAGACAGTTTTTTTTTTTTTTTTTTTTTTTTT…TC
# reported.conditions: aptamer strand: ATP DNA aptamer (quencher-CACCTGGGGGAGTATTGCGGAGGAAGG + anchor), 100 nM annealed; ATP concentration: 500 uM
quantity.kind: switch fluorescence ratio

Consider the worked cases shown below.
GGGGCAGGAC    1.54
TTGATCCGGG    1.1
GGTATTTATC    0.986
TTTGCAGAAT    1.01
TTGGTCGCGT    1

Req: For the sequence `TGGGAAAACG` , what switch fluorescence ratio is on record?
Resp: 1.05

Req: Requested read-out: switch fluorescence ratio. Entry: `TGGGAATCAC`
Resp: 1.05

Req: Look up switch fluorescence ratio for this sequence: `TAGCTTGTTT`
Resp: 1.02

Req: // returns reported switch fluorescence ratio for input `AGCGGAGTTT`
Resp: 0.984

Req: Form field: reported switch fluorescence ratio of `AGATGACTTT`
Resp: 0.98

Req: What value of switch fluorescence ratio has been recorded for this entry: `GGTATCAAGT`
Resp: 0.967

Req: Given the entry `TTATAAGCAG` , report its measured switch fluorescence ratio.
Resp: 1.02

Req: Item `GTTGAGTAGG` has what recorded switch fluorescence ratio?
Resp: 0.994

====

# System: ATP;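 note: ATP exposure 15 min at 22 °C before imaging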
# procedure.details: switch fluorescence ratio, 500 uM ATP over buffer (Cy3 cluster intensity, sum of 5 cycles each) (fold (ratio)); higher = stronger signal-on switching upon ATP binding; sequences stand for … in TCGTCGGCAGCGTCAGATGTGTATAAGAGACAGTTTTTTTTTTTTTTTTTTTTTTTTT…TC
# reported.conditions: aptamer strand: ATP DNA aptamer (quencher-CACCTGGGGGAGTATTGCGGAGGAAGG + anchor), 100 nM annealed; ATP concentration: 500 uM
Entries annotated with measured switch fluorescence ratio
Form field (numeric): enter value without unit.

Example sequences with recorded switch fluorescence ratio:
TGGCGGGGCT    0.997
GTGTCTTGGA    0.989
ATAGGTCTGC    0.975
CAAAAAAAAA    1

Continue with the next sequence.
Req: For the sequence `GACGAATCCA` , what switch fluorescence ratio is on record?
Resp: 1.03

====

# System: ATP;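 note: ATP exposure 15 min at 22 °C before imaging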
# procedure.details: switch fluorescence ratio, 500 uM ATP over buffer (Cy3 cluster intensity, sum of 5 cycles each) (fold (ratio)); higher = stronger signal-on switching upon ATP binding; sequences stand for … in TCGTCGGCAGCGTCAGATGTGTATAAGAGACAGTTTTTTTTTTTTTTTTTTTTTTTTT…TC
# reported.conditions: aptamer strand: ATP DNA aptamer (quencher-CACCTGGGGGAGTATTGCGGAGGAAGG + anchor), 100 nM annealed; ATP concentration: 500 uM
# switch fluorescence ratio listing for each entry below
In your answer, state the number alone without any accompanying words.

Below, each entry is followed by its recorded switch fluorescence ratio result.
TATGTGTTGG    0.992
GGCGAAAGGA    1
TAAAGGATAA    0.985
GATCGGCGCG    0.986
GTAGGGGATA    1.02
AGGTGTAACA    1.15
AATCTGGGTG    1.11
TGGGGTAGCA    1.01
CATAAATCAA    0.992
ACTTAGGCGG    1

Req: If you can, please state the reported switch fluorescence ratio value of `GACGAGTTTT` .
Resp: 1.01

Req: For the sequence shown here, `TTCCTTCGAT` , give the reported switch fluorescence ratio.
Resp: 1.51

Req: Requested field: switch fluorescence ratio. Item: `TCCTTGATCC`
Resp: 1.02

Req: switch fluorescence ratio lookup needed for `TGAGTGGGGA` , thanks.
Resp: 1

Req: Can you look up the measured switch fluorescence ratio of `AGATGACGTT` for me?
Resp: 1.01

Req: Entry `CGGTTACGAC` has what switch fluorescence ratio?
Resp: 1.02

Req: Quick check: switch fluorescence ratio of `TATTCGGGAG` ?
Resp: 1.01

Req: Requested read-out: switch fluorescence ratio. Entry: `TGCATGTCGC`
Resp: 0.991

Req: # query: switch fluorescence ratio of entry `CAGCTTTAAT`
Resp: 1.03

Req: Report switch fluorescence ratio for `CATGTTAGGT` please.
Resp: 1.01
